Provenance of the data: patent US20240270821A1

Measured EC50 by item
TARGET: hGLP-1R (Homo sapiens, UniProt P43220)
Sequence (P43220 24-463): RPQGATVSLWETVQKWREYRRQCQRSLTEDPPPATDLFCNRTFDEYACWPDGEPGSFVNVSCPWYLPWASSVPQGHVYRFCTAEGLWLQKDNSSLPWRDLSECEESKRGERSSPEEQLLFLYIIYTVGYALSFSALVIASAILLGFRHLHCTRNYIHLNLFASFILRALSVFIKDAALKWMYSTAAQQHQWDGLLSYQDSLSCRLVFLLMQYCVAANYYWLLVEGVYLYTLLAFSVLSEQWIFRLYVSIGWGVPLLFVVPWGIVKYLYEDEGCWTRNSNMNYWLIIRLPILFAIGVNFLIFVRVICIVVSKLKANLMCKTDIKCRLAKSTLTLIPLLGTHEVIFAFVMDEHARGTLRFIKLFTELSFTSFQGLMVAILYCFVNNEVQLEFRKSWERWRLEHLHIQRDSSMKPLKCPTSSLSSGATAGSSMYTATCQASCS
PROCEDURE TEXT: Functional cAMP activity in the presence of 1% HSA
Assay type: cell-based
CONDITION PARAMETERS: read-out: cAMP Rel EC50, hGLP-1R
Starred links: 1 amine or outer side, 2 acyl side, 3 side chain; linkers in the order of their positions; H or OH if unused. Non-standard residues stand in square brackets, D forms with d. Groups on a side chain read outwards from the residue. *: point of attachment. C20 diacid = O=C(O)CCCCCCCCCCCCCCCCCCC(=O)*; C18 diacid = O=C(O)CCCCCCCCCCCCCCCCC(=O)*; αMePhe(2-F) = C[C@](N)(Cc1ccccc1F)C(=O)O; γGlu = O=C(O)[C@H](CCC(=O)[*:2])N[*:1]; αMe4Pal = C[C@](N)(Cc1ccncc1)C(=O)O; 4Pal = N[C@@H](Cc1ccncc1)C(=O)O; αMeL = CC(C)C[C@](C)(N)C(=O)O; Orn = NCCC[C@H](N)C(=O)O; AEEA = NCCOCCOCC(=O)O; Aib = CC(C)(N)C(=O)O
Form entry: value (nM) — number only.

{"SUBSTANCE": "H-Y[Aib]QGTFTSDFS[Orn][αMeL]LDKK([AEEA-AEEA-γGlu-C18 diacid])AQ[Aib]AFIEYLLE[dA]GPSSG[4Pal]PPPSGH-NH2 [Example 257]", "EC50, nM": 388}
{"SUBSTANCE": "H-Y[Aib]QGTFTSD[4Pal]SQ[αMeL]LDKK([γGlu-γGlu-C18 diacid])AQ[αMe4Pal]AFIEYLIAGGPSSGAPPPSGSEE-NH2 [Example 960]", "EC50, nM": 161}

Specify reported EC50 for the substance shown: H-Y[Aib]QGTFTSDYSQ[αMeL]LDKK([AEEA-γGlu-C18 diacid])AQ[Aib]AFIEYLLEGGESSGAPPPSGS-NH2 [Example 362] 450

Quick one: give measured EC50 for H-Y[Aib]QGTFTSD[4Pal]S[Orn][αMeL]LDKK([γGlu-γGlu-C18 diacid])AQ[αMe4Pal]AFIE[αMe4Pal]LIEGGPSSGAPPPSGSEE-NH2 [Example 958] 850

Give EC50 for H-Y[Aib]QGT[αMePhe(2-F)]TSDYSKILDKIAQK([AEEA-γGlu-C20 diacid])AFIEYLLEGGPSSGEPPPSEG-NH2 [Example 311] 1080

Report EC50 for H-Y[Aib]QGTFTSD[4Pal]S[Orn][αMeL]LDKK([AEEA-γGlu-C18 diacid])AQ[Aib]AFIEWLLEGGPSSGEPPPSGE-NH2 [Example 115] 1460
